System: HuVECs
Assay: Endothelial tube formation assay in HuVECs
Settings: 75 nM oligomeric compound, Table 56
In the oligonucleotide strings, read from the 5' end, every base follows the letter of its sugar. An asterisk marks phosphorothioate; unmarked linkages are phosphodiester. Other units and linkages are bracketed, terminal groups are in braces. A string of capitals states the bases alone. e = 2'-O-(2-methoxyethyl) (MOE); [5mC] = 5-methylcytosine
Answer each item with its documented % Activity Relative to UTC (tube formation).
Numbers only, in %.

Worked examples follow.
327891 (antisense eG*eG*e[5mC]*e[5mC]*eG*eT*eG*eA*e[5mC]*eT*eG*eG*eA*eG*eA*e[5mC]*eT*eG*eT*eT*eA) [compound 327891]: 50.0
327883 (antisense e[5mC]*eA*eG*eA*eA*e[5mC]*eT*eT*eA*eG*e[5mC]*e[5mC]*eA*e[5mC]*eT*eG*eT*eG*eA*eA) [compound 327883]: 92.9

Hi team, please reply with % Activity Relative to UTC (tube formation) for each item in this list.
1. 327885 (antisense eA*e[5mC]*eT*eA*e[5mC]*e[5mC]*eT*eG*e[5mC]*eA*e[5mC]*eT*eG*eT*eA*eA*eG*e[5mC]*eA*e[5mC]*eT*eT*eT*eG) [compound 327885]
2. 327889 (antisense eG*eT*eG*eG*eT*eA*eA*eT*e[5mC]*e[5mC]*e[5mC]*eT*eG*eG*e[5mC]*eA*eA*eT*eG*eT*eG*eA*eT) [compound 327889]

stdout:
50.0
50.0

Hi team, please reply with % Activity Relative to UTC (tube formation) for each item in this list.
1. 327886 (antisense e[5mC]*eG*e[5mC]*eG*eT*eA*e[5mC]*e[5mC]*eA*eA*eA*eA*eG*eT*eA*eA*eT*eA*eA*eT*eG) [compound 327886]
2. 327895 (antisense eA*e[5mC]*eA*eA*eA*e[5mC]*eA*e[5mC]*e[5mC]*eA*eT*eT*eG*eT*e[5mC]*eA*e[5mC]*eA*e[5mC]*eT*e[5mC]*e[5mC]*eA) [compound 327895]

stdout:
1: 42.9; 2: 100.0

Hi team, please reply with % Activity Relative to UTC (tube formation) for each item in this list.
1. 327890 (antisense eA*eG*e[5mC]*eA*e[5mC]*eA*eA*eA*e[5mC]*eT*eA*e[5mC]*eT*eA*e[5mC]*e[5mC]*eT*e[5mC]*eA) [compound 327890]
2. 327879 (antisense eA*eA*e[5mC]*eA*eA*eA*eA*eT*e[5mC]*eA*e[5mC]*eT*eA*eG*eT*e[5mC]*eT*eT*e[5mC]*e[5mC]*eA) [compound 327879]
3. 342672 (antisense eA*eT*eA*e[5mC]*e[5mC]*eG*e[5mC]*eG*eA*eT*e[5mC]*eA*eG*eT*eG*e[5mC]*eA*eT*e[5mC]*eT*eT*eT) [compound 342672]
4. 327893 (antisense eA*eA*e[5mC]*e[5mC]*eA*e[5mC]*eA*e[5mC]*eA*eA*e[5mC]*e[5mC]*eT*eA*e[5mC]*eT*eA*e[5mC]*e[5mC]*eT*e[5mC]*eA) [compound 327893]

stdout:
1. 92.9
2. 71.4
3. 46.4
4. 100.0
